B1: Progranulin (Homo sapiens), P28799 (parent)
chain: MWTLVSWVALTAGLVAGTRCPDGQFCPVACCLDPGGASYSCCRPLLDKWPTTLSRHLGGPCQVDAHCSAGHSCIFTVSGTSSCCPFPEAVACGDGHHCCPRGFHCSADGRSCFQRSGNNSVGAIQCPDSQFECPDFSTCCVMVDGSWGCCPMPQASCCEDRVHCCPHGAFCDLVHTRCITPTGTHPLAKKLPAQRTNRAVALSSSVMCPDARSRCPDGSTCCELPSGKYGCCPMPNATCCSDHLHCCPQDTVCDLIQSKCLSKENATTDLLTKLPAHTVGDVKCDMEVSCPDGYTCCRLQSGAWGCCPFTQAVCCEDHIHCCPAGFTCDTQKGTCEQGPHQVPWMEKAPAHLSLPDPQALKRDVPCDNVSSCPSSDTCCQLTSGEWGCCPIPEAVCCSDHQHCCPQGYTCVAEGQCQRGSEIVAGLEKMPARRASLSHPRDIGCDQHTSCPVGQTCCPSLGGSWACCQLPHAVCCEDRQHCCPAGYTCNVKARSCEKEVVSAQPATFLARSPHVGVKDVECGEGHFCHDNQTCCRDNRQGWACCPYRQGVCCADRRHCCPAGFRCAARGTKCLRREAPRWDAPLRDPALRQLL

variants of: B1; details: with hxa1_human HOXA1, P49639
Sequence (P49639 whole entry): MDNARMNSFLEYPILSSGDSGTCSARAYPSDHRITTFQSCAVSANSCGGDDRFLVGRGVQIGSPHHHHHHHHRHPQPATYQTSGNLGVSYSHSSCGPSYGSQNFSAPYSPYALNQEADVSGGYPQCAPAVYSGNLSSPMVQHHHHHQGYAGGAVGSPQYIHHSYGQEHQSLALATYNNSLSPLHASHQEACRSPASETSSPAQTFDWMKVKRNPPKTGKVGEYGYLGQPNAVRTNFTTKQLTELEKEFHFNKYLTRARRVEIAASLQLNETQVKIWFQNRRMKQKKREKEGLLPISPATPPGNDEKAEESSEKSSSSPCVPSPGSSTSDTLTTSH
readout.kind: effect of a mutation on the interaction

P451L with no effect
P248L with no effect
